Protocol: Phase I multiple-dose study: plasma pharmacokinetics
Run parameters: both, human, plasma, oral, 2.5 mg·day^−1

>  <Smiles code>
CCc1cc(/C(C)=N/OCc2ccc(C3CCCCC3)c(C(F)(F)F)c2)ccc1CN1CC(C(=O)O)C1

>  <Cmax (ng/mL)>
17.4

$$$$

====

Protocol: Phase I multiple-dose study: plasma pharmacokinetics
Run parameters: both, human, plasma, oral, 2.5 mg·day^−1, Cmin,ss, Day 28, 2.5 mg·day^−1; geometric mean [%CV]
Endpoint label: concentration at 28 day (ng/mL)

>  <Smiles code>
CCc1cc(/C(C)=N/OCc2ccc(C3CCCCC3)c(C(F)(F)F)c2)ccc1CN1CC(C(=O)O)C1

>  <Unit text>
ng/mL

>  <Measured result>
15.2

$$$$

====

Protocol: Phase I multiple-dose study: plasma pharmacokinetics
Run parameters: both, human, plasma, oral, Effective elimination half-life based on drug accumulation at steady state, range over dose groups
Endpoint label: half-life

>  <Smiles code>
CCc1cc(/C(C)=N/OCc2ccc(C3CCCCC3)c(C(F)(F)F)c2)ccc1CN1CC(C(=O)O)C1

>  <Measured result>
22 to 38 h

$$$$

====

Protocol: Phase I multiple-dose study: plasma pharmacokinetics
Run parameters: both, human, plasma, oral, 20 mg·day^−1
Endpoint label: Tmax (h)

>  <Smiles code>
CCc1cc(/C(C)=N/OCc2ccc(C3CCCCC3)c(C(F)(F)F)c2)ccc1CN1CC(C(=O)O)C1

>  <Endpoint label>
Tmax

>  <Measured result>
4

$$$$

====

System: human S1P1 receptors (Homo sapiens, UniProt P21453)
Sequence (P21453 whole entry): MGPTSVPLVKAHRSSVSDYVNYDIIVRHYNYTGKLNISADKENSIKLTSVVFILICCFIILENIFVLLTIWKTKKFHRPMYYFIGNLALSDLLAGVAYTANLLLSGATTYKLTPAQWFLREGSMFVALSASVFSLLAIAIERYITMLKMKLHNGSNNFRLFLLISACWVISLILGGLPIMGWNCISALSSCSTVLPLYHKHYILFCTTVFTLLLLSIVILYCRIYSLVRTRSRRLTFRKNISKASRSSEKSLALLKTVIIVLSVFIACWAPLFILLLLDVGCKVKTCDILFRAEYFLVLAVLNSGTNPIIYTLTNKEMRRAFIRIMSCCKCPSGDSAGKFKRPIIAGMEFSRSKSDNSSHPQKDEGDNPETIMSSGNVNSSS
Protocol: GTPγ[35S] binding assay, human S1P1

>  <Compound>
CCc1cc(/C(C)=N/OCc2ccc(C3CCCCC3)c(C(F)(F)F)c2)ccc1CN1CC(C(=O)O)C1 [BAF312]

>  <Unit text>
nM

>  <EC50>
0.39

$$$$

====

System: human S1P2 receptors (Homo sapiens, UniProt O95136)
Sequence (O95136 whole entry): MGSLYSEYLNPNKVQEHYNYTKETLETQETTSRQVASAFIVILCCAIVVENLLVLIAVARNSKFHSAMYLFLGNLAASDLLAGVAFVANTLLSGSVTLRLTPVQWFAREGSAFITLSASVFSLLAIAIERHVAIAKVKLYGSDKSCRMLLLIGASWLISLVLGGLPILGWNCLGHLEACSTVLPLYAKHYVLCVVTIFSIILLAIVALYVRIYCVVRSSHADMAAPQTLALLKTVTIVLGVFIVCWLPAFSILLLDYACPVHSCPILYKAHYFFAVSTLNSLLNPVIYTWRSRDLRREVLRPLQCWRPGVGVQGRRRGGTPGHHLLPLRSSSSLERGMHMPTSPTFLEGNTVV
Protocol: GTPγ[35S] binding assay, human S1P2
Endpoint label: EC50

>  <Smiles code>
CCc1cc(/C(C)=N/OCc2ccc(C3CCCCC3)c(C(F)(F)F)c2)ccc1CN1CC(C(=O)O)C1

>  <Measured result>
> 10 µM

$$$$

====

Protocol: Phase I multiple-dose study: plasma pharmacokinetics
Run parameters: both, human, plasma, oral, 2.5 mg·day^−1
Endpoint label: Tmax at 28 day (h)

>  <Compound>
CCc1cc(/C(C)=N/OCc2ccc(C3CCCCC3)c(C(F)(F)F)c2)ccc1CN1CC(C(=O)O)C1 [BAF312]

>  <Endpoint label>
Tmax at 28 day

>  <Unit text>
h

>  <Measured result>
4

$$$$

====

Protocol: Phase I multiple-dose study: plasma pharmacokinetics
Run parameters: both, human, plasma, oral, 0.3 mg·day^−1, Cmin,ss, Day 28, 0.3 mg·day^−1; geometric mean [%CV]

>  <Smiles code>
CCc1cc(/C(C)=N/OCc2ccc(C3CCCCC3)c(C(F)(F)F)c2)ccc1CN1CC(C(=O)O)C1

>  <Unit text>
ng/mL

>  <concentration at 28 day>
2.83

$$$$

====

Protocol: Phase I multiple-dose study: plasma pharmacokinetics
Run parameters: both, human, plasma, oral, 10 mg·day^−1, Cavg, ss, Day 28, 10 mg·day^−1; geometric mean [%CV]
Endpoint label: concentration at 28 day (ng/mL)

>  <Compound>
CCc1cc(/C(C)=N/OCc2ccc(C3CCCCC3)c(C(F)(F)F)c2)ccc1CN1CC(C(=O)O)C1 [BAF312]

>  <Measured result>
107

$$$$
